ASSAYED_TARGET: CD276, Q5ZPR3
Sequence (Q5ZPR3 whole entry): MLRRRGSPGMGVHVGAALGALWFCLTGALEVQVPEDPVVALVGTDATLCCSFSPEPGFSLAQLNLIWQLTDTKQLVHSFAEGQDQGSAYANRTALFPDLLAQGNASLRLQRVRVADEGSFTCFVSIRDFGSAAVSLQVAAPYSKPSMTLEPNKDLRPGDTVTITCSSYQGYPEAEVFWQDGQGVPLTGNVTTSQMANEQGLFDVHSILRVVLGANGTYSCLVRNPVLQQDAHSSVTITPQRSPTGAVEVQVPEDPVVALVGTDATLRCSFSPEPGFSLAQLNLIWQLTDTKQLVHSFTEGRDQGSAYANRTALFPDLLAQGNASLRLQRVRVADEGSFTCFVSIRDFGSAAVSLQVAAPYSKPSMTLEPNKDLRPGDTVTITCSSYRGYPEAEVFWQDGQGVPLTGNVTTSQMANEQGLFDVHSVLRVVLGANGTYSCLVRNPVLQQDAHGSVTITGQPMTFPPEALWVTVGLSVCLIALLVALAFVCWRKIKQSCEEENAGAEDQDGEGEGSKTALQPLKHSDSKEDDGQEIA

BINDER	binding in a display sort
design_619_5728adc2-0aea-404f-92dd-a4575c53f550_1668_dldesign_0_cycle1_af2pred (protein) ARAVVEAAANELAAETLRAGWQAGETGDAIAARIRAILEAGREVAEELAARNPAVTLEEARAAVRERAERLLAEAAA	not found (inactive)
design_618_d4ffd631-0ea2-432e-ba0f-bd3d6297b2a0_2243_dldesign_0_cycle1_af2pred (protein) AAAAATALAKATAEALVRSAERGNAETARKLAEVAKGLAEGEAAAGDEEAAKAAAEAAKKIEAIAKEKAA	not found (inactive)
design_614_ef6b398b-10cb-4a07-8087-96dafb4f9c83_13_dldesign_0_cycle1_af2pred (protein) SEAEKQAIEIAIAAVLKAGELAGVPEEAKKVAEKIKKSNAGAALAIASAFLNRAAAAAEAAGDAATAAAIRALRTATTAKILALLRG	not found (inactive)

Hello, the source for this data is paper PMC13494018, in case you need it.
